- System: Staphylococcus aureus 285
- TEST DETAILS: In Vitro Anti-Bacterial Activity Test (MIC, agar dilution)
- Type: cell-based
- EXPERIMENTAL CONDITIONS: Staphylococcus aureus, 285, 18 h, Staphylococcus aureus 285; Muller-Hinton agar, 37° C., 18 hours; read-out: MIC
Where a name gives a salt, the structure may show the parent alone.
Give MIC for every item shown.
In your response, the unit should come after the numeric value.

**Query** Write down the reported MIC of CCOC(=O)C(C(=O)OCC)C(=O)c1cn(C2CC2)c2c(Cl)c(N3CC=C(CNC)C3)c(F)cc2c1=O [Example 28, hydrochloride] , test system: Staphylococcus aureus 285.
**Result** 0.007 µg/mL

**Query** Same thing, different molecule: O=C(C[N+](=O)[O-])c1cn(C2CC2)c2c(Cl)c(N3CC4=C(CNC4)C3)c(F)cc2c1=O [Example 34, hydrochloride]
**Result** 0.049 µg/mL

**Query** Same thing, different molecule: CCOC(=O)CC(=O)c1cn(C2CC2)c2c(Cl)c(N3CC=C(CNC)C3)c(F)cc2c1=O [Example 29, hydrochloride]
**Result** 0.049 µg/mL

**Query** Same thing, different molecule: C[C@@H]1CN(c2c(F)c(N)c3c(=O)c(C(=O)C[N+](=O)[O-])cn(C4CC4)c3c2F)C[C@H](C)N1 [Example 14, hydrochloride]
**Result** 0.098 µg/mL

**Query** Same thing, different molecule: CCOC(=O)C(C(=O)OCC)C(=O)c1cn(C2CC2)c2c(Cl)c(N3CCC(NC)C3)c(F)cc2c1=O (stereo not shown) [Example 57, hydrochloride]
**Result** 0.195 µg/mL

**Query** Same thing, different molecule: N#CCC(=O)c1cn(C2CC2)c2c(Cl)c(N3CCC(N)C3)c(F)cc2c1=O (stereo not shown) [Example 42, hydrochloride]
**Result** 3.12 µg/mL

**Query** Same thing, different molecule: COc1c(N2CCC(N)C2)c(F)cc2c(=O)c(C(=O)C[N+](=O)[O-])cn(C3CC3)c12 (stereo not shown) [Example 49, hydrochloride]
**Result** 0.098 µg/mL

**Query** Same thing, different molecule: CCOC(=O)C(C(=O)OCC)C(=O)c1cn(C2CC2)c2c(OC)c(N3CC[C@@H](NC)C3)c(F)cc2c1=O [Example 58, hydrochloride]
**Result** 0.195 µg/mL

**Query** Same thing, different molecule: CCOC(=O)C(C(=O)OCC)C(=O)c1cn(C2CC2)c2cc(N3CCNCC3)c(F)cc2c1=O [Example 18, hydrochloride]
**Result** 0.391 µg/mL

**Query** Same thing, different molecule: NCC1CCN(c2c(F)cc3c(=O)c(C(=O)C[N+](=O)[O-])cn(C4CC4)c3c2Cl)C1 (stereo not shown) [Example 53, hydrochloride]
**Result** 0.007 µg/mL

**Query** Same thing, different molecule: CCOC(=O)C(C(=O)OCC)C(=O)c1cn(C2CC2)c2c(OC)c(N3CC[C@H](NC)C3)c(F)cc2c1=O [Example 59, hydrochloride]
**Result** 0.098 µg/mL

**Query** Same thing, different molecule: CN[C@@H]1CCN(c2c(F)cc3c(=O)c(C(=O)C[N+](=O)[O-])cn(C4CC4)c3c2Cl)C1 [Example 61, hydrochloride]
**Result** 0.025 µg/mL

**Query** Same thing, different molecule: N#CCC(=O)c1cn(C2CC2)c2c(Cl)c(N3CC4=C(CNC4)C3)c(F)cc2c1=O [Example 44, hydrochloride]
**Result** 6.25 µg/mL
